Test details: Enzyme kinetic analysis of yCD series proteins after DTPA modification, marking and purification
Type: biochemical
Experimental endpoint: Km (µM)

[[record]]
molecule = "In-DTPA-yCD: DTPA-yCD treated with the stable isotope of indium under simulated marking conditions (conjugate) MVVTGGMASKWDQKGMDIAYEEAALGYKEGGVPIGGCLINNKDGSVLGRGHNMRFQKGSATLHGEISTLENCGRLEGKVYKDTTLYTTLSPCDMCTGAIIMYGIPRCVVGENVNFKSKGEKYLQTRGHEVVVVDDERCKKIMKQFIDERPQDWFEDIGELEHHHHHH"
experimental_endpoint = "Km"
readout_value = 1120

[[record]]
molecule = "yCD: yeast cytosine deaminase (yCD) (SEQ ID NO: 1), recombinant protein without target molecule (protein, yCD) MVVTGGMASKWDQKGMDIAYEEAALGYKEGGVPIGGCLINNKDGSVLGRGHNMRFQKGSATLHGEISTLENCGRLEGKVYKDTTLYTTLSPCDMCTGAIIMYGIPRCVVGENVNFKSKGEKYLQTRGHEVVVVDDERCKKIMKQFIDERPQDWFEDIGELEHHHHHH"
experimental_endpoint = "Km"
readout_value = 840

[[record]]
molecule = "In-DTPA-RGD4C-yCD: DTPA-RGD4C-yCD treated with the stable isotope of indium under simulated marking conditions (conjugate) MACDCRGDCFCVTGGMASKWDQKGMDIAYEEAALGYKEGGVPIGGCLINNKDGSVLGRGHNMRFQKGSATLHGEISTLENCGRLEGKVYKDTTLYTTLSPCDMCTGAIIMYGIPRCVVGENVNFKSKGEKYLQTRGHEVVVVDDERCKKIMKQFIDERPQDWFEDIGELEHHHHHH"
experimental_endpoint = "Km"
readout_value = 956

[[record]]
molecule = "RGD4C-yCD: targeted prodrug enzyme fusion protein of RGD4C and yCD (SEQ ID NO: 3) (protein, RGD4C_yCD) MACDCRGDCFCVTGGMASKWDQKGMDIAYEEAALGYKEGGVPIGGCLINNKDGSVLGRGHNMRFQKGSATLHGEISTLENCGRLEGKVYKDTTLYTTLSPCDMCTGAIIMYGIPRCVVGENVNFKSKGEKYLQTRGHEVVVVDDERCKKIMKQFIDERPQDWFEDIGELEHHHHHH"
experimental_endpoint = "Km"
readout_value = 1000

[[record]]
molecule = "DTPA-RGD4C-yCD: RGD4C-yCD protein modified by the metal chelating agent DTPA (conjugate) MACDCRGDCFCVTGGMASKWDQKGMDIAYEEAALGYKEGGVPIGGCLINNKDGSVLGRGHNMRFQKGSATLHGEISTLENCGRLEGKVYKDTTLYTTLSPCDMCTGAIIMYGIPRCVVGENVNFKSKGEKYLQTRGHEVVVVDDERCKKIMKQFIDERPQDWFEDIGELEHHHHHH"
experimental_endpoint = "Km"
readout_value = 1160

